Measured values drawn from patent US20240391885A1 for this set.

Assay: Solubility of linerixibat drug substance over pH 1.2-6.8 at 37±1° C. (Experiment 8a)
Format: physicochemical
Details: Britton Robinson buffer, 37 °C, pH 3, aqueous buffer, thermodynamic from solid, nominal pH 3.0, BR buffer, 4-hr timepoint
readoutLabel: solubility at 4 h (µg/mL)
Answers are plain numbers, in µg/mL.

// CCCC[C@]1(CC)CS(=O)(=O)c2cc(CNC(CC(=O)O)CC(=O)O)c(OC)cc2[C@@H](c2ccccc2)N1 [Form I] : solubility at 4 h value = 198

====

Assay: Solubility of linerixibat drug substance over pH 1.2-6.8 at 37±1° C. (Experiment 8a)
Type: physicochemical
Settings: Britton Robinson buffer, 37 °C, pH 3.5, aqueous buffer, thermodynamic from solid, nominal pH 3.5, BR buffer, 4-hr timepoint
readoutLabel: solubility at 4 h

// CCCC[C@]1(CC)CS(=O)(=O)c2cc(CNC(CC(=O)O)CC(=O)O)c(OC)cc2[C@@H](c2ccccc2)N1 [Form I] : solubility at 4 h value = 110 µg/mL

====

Test: Solubility of linerixibat drug substance over pH 1.2-6.8 at 37±1° C. (Experiment 8a)
Assay type: physicochemical
Details: phosphate buffer, 37 °C, pH 6.8, aqueous buffer, thermodynamic from solid, nominal pH 6.8, Phosphate buffer, 4-hr timepoint
readoutLabel: solubility at 4 h

// CCCC[C@]1(CC)CS(=O)(=O)c2cc(CNC(CC(=O)O)CC(=O)O)c(OC)cc2[C@@H](c2ccccc2)N1 [Form I] : solubility at 4 h value = > 1000 µg/mL

====

Assay: Solubility of drug substance samples in biorelevant media and sodium acetate buffer (Experiment 8b)
Format: physicochemical
Settings: Simulated Gastric Fluid (SGF), pH 4, simulated gastric fluid, thermodynamic from solid, SGF pH 4.0, 4 Hours
readoutLabel: solubility at 4 h

// CCCC[C@]1(CC)CS(=O)(=O)c2cc(CNC(CC(=O)O)CC(=O)O)c(OC)cc2[C@@H](c2ccccc2)N1 [Form I] : solubility at 4 h value = 150 µg/mL

====

Assay: Solubility of drug substance samples in biorelevant media and sodium acetate buffer (Experiment 8b)
Type: physicochemical
Conditions: 50 mM sodium acetate buffer, pH 4.5, aqueous buffer, thermodynamic from solid, 50 mM Sodium Acetate Buffer pH 4.5, 1 Hour
readoutLabel: solubility at 1 h (µg/mL)
One number for each entry, in µg/mL.

// CCCC[C@]1(CC)CS(=O)(=O)c2cc(CNC(CC(=O)O)CC(=O)O)c(OC)cc2[C@@H](c2ccccc2)N1 [Form I] : solubility at 1 h value = 270

====

Experiment: Solubility of linerixibat drug substance over pH 1.2-6.8 at 37±1° C. (Experiment 8a)
Format: physicochemical
Details: acetate buffer, 37 °C, pH 4.5, aqueous buffer, thermodynamic from solid, nominal pH 4.5, Acetate buffer, 4-hr timepoint
readoutLabel: solubility at 4 h (µg/mL)
Give bare numbers, in µg/mL.

// CCCC[C@]1(CC)CS(=O)(=O)c2cc(CNC(CC(=O)O)CC(=O)O)c(OC)cc2[C@@H](c2ccccc2)N1 [Form I] : solubility at 4 h value = 214

====

Experiment: Solubility of linerixibat drug substance over pH 1.2-6.8 at 37±1° C. (Experiment 8a)
Assay type: physicochemical
Conditions: simulated gastric fluid (SGF), 37 °C, pH 1.2, simulated gastric fluid, thermodynamic from solid, nominal pH 1.2, SGF, 24-hr timepoint
readoutLabel: solubility at 24 h

// CCCC[C@]1(CC)CS(=O)(=O)c2cc(CNC(CC(=O)O)CC(=O)O)c(OC)cc2[C@@H](c2ccccc2)N1 [Form I] : solubility at 24 h value = > 1000 µg/mL
